System: smallflower flatsedge
Test: Test B flood test smallflower flatsedge
Type: in vivo, Cyperus difformis
Conditions: Rate 250 g/ha, Postemergence (flood test); scale 0 to 10, 0 is no effect, 10 is complete control
ASSAY METRIC: Plant response rating, S. Flatsedge

COMPOUND | VALUE REPORTED
CC(C)N(C(=O)n1oc(=O)n(-c2nc(Cl)sc2Cl)c1=O)c1ccc(F)cc1 | 0
CCn1c(=O)on(C(=O)N(c2ccc(F)cc2F)C(C)C)c1=O | 0
C=C(C)Cn1c(=O)on(C(=O)N(c2ccc(F)cc2)C(C)C)c1=O | 0

----------
Test system: morningglory
Experiment: Test B pre/postemergence morningglory
Format: in vivo, Ipomoea hederacea
Conditions: Rate 62 g/ha, Postemergence; scale of 0 to 10 where 0 is no effect and 10 is complete control
ASSAY METRIC: Morningglory plant response rating

MOLECULE | VALUE REPORTED
CC(C)N(C(=O)n1oc(=O)n(-c2nc(Cl)sc2Cl)c1=O)c1ccc(F)cc1 | 0
CC(C)N(C(=O)n1oc(=O)n(-c2cnn(C)c2Cl)c1=O)c1ccccc1 | 1
CC(C)N(C(=O)n1oc(=O)n(C(C)c2ccccc2)c1=O)c1ccc(F)cc1 (stereo not shown) | 5
Cc1cc(C)c(-n2c(=O)on(C(=O)N(c3ccc(F)cc3)C(C)C)c2=O)c(Br)c1 | 2
Cc1ccccc1-n1c(=O)on(C(=O)N(c2ccc(S(C)(=O)=O)cc2)C(C)C)c1=O | 0
CC(C)N(C(=O)n1oc(=O)n([C@@H]2C[C@H]2C)c1=O)c1ccc(F)cc1 (relative stereo) | 5
CCc1noc(C)c1-n1c(=O)on(C(=O)N(c2ccc(F)cc2)C(C)C)c1=O | 0

----------
Wild oats plant response rating overview
Test system: wild oat
Experiment: Test B pre/postemergence wild oat
Type: in vivo, Avena fatua
Settings: Preemergence, Rate 62 g/ha; scale of 0 to 10 where 0 is no effect and 10 is complete control
ASSAY METRIC: Wild oats plant response rating

COMPOUND | ASSAY METRIC | VALUE REPORTED
CC[C@@H](C)n1c(=O)on(C(=O)N(c2ccc(F)cc2F)C(C)C)c1=O [Compound 667] | Wild oats plant response rating | 4
CCOC(=O)C(C)N(C(=O)n1oc(=O)n(-c2c(C)cccc2C)c1=O)c1ccc(F)cc1 (centres unmarked) [Compound 244] | Wild oats plant response rating | 0
CCC(=O)Cn1c(=O)on(C(=O)N(c2ccc(F)cc2)C(C)C)c1=O [Compound 252] | Wild oats plant response rating | 0
CC(C)N(C(=O)n1oc(=O)n(-c2ccc3ccccc3c2)c1=O)c1ccccc1 [Compound 332] | Wild oats plant response rating | 0
CC(C)N(C(=O)n1oc(=O)n(C(C)C2CC2)c1=O)c1ccc(F)cc1F (centres unmarked) [Compound 720] | Wild oats plant response rating | 7
Cc1cc(C)c(-n2c(=O)on(C(=O)N(c3ccc(F)cc3)C(C)C)c2=O)c(Br)c1 [Compound 224] | Wild oats plant response rating | 0
CC(C)N(C(=O)n1oc(=O)n(CCCC#N)c1=O)c1ccccc1 [Compound 674] | Wild oats plant response rating | 1
CC(C)N(C(=O)n1oc(=O)n(CCC2CCCCC2)c1=O)c1ccc(F)cc1 [Compound 257] | Wild oats plant response rating | 0

----------
Plant response rating, Crabgrass overview
Test system: crabgrass
Assay: Test B pre/postemergence crabgrass
Assay type: in vivo, Digitaria sanguinalis
Settings: Preemergence, Rate 125 g/ha; scale of 0 to 10 where 0 is no effect and 10 is complete control
ASSAY METRIC: Plant response rating, Crabgrass

COMPOUND | VALUE REPORTED
CC(C)N(C(=O)n1oc(=O)[nH]c1=O)c1ccc(F)cc1F | 0
CCn1ncc(Cn2c(=O)on(C(=O)N(c3ccc(Cl)cc3)C(C)C)c2=O)c1Cl | 7
CC(C)N(C(=O)n1oc(=O)n(CCC#N)c1=O)c1ccc(F)cc1F | 10
CC(C)N(C(=O)n1oc(=O)n(C)c1=O)c1ccccc1 | 9
